The reported measurements were obtained from ChEMBL document CHEMBL1158102.

STUDY_TARGET: Pancreatic triacylglycerol lipase (Homo sapiens)
PROCEDURE_TEXT: Inhibition of pancreatic lipase assessed as umoles of oleic acic released per millimiter of triolein per hour at 1 mg/mL
The source made the active and inactive calls. No cut-off for these calls is given here.
METRIC: Activity

CC(=O)OC[C@H]1O[C@@H](OC[C@H]2O[C@@H](OC(=O)[C@]34CCC(C)(C)C[C@H]3C3=CC[C@H]5[C@@H](CC[C@H]6C(C)(C)[C@@H](O[C@@H]7OC[C@H](O)[C@H](O)[C@H]7O[C@@H]7O[C@H](CO)[C@@H](O)[C@H](O)[C@H]7O)CC[C@]56C)[C@]3(C)CC4)[C@H](O)[C@@H](O)[C@@H]2O)[C@H](O)[C@@H](O)[C@@H]1O[C@@H]1O[C@@H](C)[C@H](O)[C@@H](O)[C@H]1O; inactive
C=C1CC[C@]2(C(=O)O[C@@H]3O[C@H](CO[C@@H]4O[C@H](CO)[C@@H](O[C@@H]5O[C@@H](C)[C@H](O)[C@@H](O)[C@H]5O)[C@H](O)[C@H]4O)[C@@H](O)[C@H](O)[C@H]3O)CC[C@]3(C)C(=CC[C@H]4[C@H]3CC[C@H]3C(C)(C)[C@@H](O[C@@H]5OC[C@H](O)[C@H](O)[C@H]5O[C@@H]5O[C@H](CO)[C@@H](O)[C@H](O)[C@H]5O)CC[C@]43C)[C@@H]2C1; inactive

###

STUDY_TARGET: Pancreatic triacylglycerol lipase (Homo sapiens) (UniProt P16233)
Sequence (P16233 whole entry): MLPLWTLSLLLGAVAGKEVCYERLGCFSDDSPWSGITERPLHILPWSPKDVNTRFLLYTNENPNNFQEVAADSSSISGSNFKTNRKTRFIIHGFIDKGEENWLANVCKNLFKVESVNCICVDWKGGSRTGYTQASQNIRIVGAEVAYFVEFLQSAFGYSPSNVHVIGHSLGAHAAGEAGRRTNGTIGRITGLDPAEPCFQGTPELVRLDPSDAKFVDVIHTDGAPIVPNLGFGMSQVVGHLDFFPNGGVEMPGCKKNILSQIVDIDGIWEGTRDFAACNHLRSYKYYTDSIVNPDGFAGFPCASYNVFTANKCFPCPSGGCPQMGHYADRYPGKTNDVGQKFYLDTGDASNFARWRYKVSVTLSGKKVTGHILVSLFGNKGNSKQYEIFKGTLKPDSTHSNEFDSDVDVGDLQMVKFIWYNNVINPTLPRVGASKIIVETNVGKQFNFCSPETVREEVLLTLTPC
PROCEDURE_TEXT: Inhibition of pancreatic lipase assessed as umoles of oleic acic released per millimiter of triolein per hour at 1 mg/mL
Classification field: enter Y for inhibition values not below 40%, N for values below it.

C[C@@H]1O[C@@H](O[C@H]2[C@H](O[C@H]3CC[C@]4(C)[C@H]5CC=C6[C@@H]7C[C@](C)(C(=O)O)CC[C@]7(C(=O)O)CC[C@@]6(C)[C@@H]5CC[C@H]4C3(C)C)OC[C@H](O)[C@@H]2O)[C@H](O)[C@H](O)[C@H]1O; Y
C[C@@H]1O[C@@H](O[C@H]2[C@H](O[C@H]3CC[C@]4(C)[C@H]5CC=C6[C@@H]7CC(C)(C)CC[C@]7(C(=O)O[C@@H]7O[C@H](CO[C@@H]8O[C@H](CO)[C@@H](O[C@@H]9O[C@@H](C)[C@H](O)[C@@H](O)[C@H]9O)[C@H](O)[C@H]8O)[C@@H](O)[C@H](O)[C@H]7O)[C@H](O)C[C@@]6(C)[C@@H]5CC[C@H]4C3(C)C)OC[C@H](O)[C@@H]2O)[C@H](O)[C@H](O)[C@H]1O; N
C=C1CC[C@]2(C(=O)O[C@@H]3O[C@H](CO[C@@H]4O[C@H](CO)[C@@H](O[C@@H]5O[C@@H](C)[C@H](O)[C@@H](O)[C@H]5O)[C@H](O)[C@H]4O)[C@@H](O)[C@H](O)[C@H]3O)CC[C@]3(C)C(=CC[C@H]4[C@H]3CC[C@H]3C(C)(C)[C@@H](O[C@@H]5OC[C@H](O)[C@H](O)[C@H]5O)CC[C@]43C)[C@@H]2C1; Y
C=C(C)[C@@H]1CC[C@]2(C(=O)O[C@@H]3O[C@H](CO[C@@H]4O[C@H](CO)[C@@H](O[C@@H]5O[C@@H](C)[C@H](O)[C@@H](O)[C@H]5O)[C@H](O)[C@H]4O)[C@@H](O)[C@H](O)[C@H]3O)CC[C@]3(C)[C@H](CC[C@@H]4[C@@](C)(CCC(=O)O)[C@H](C(=C)C)CC[C@]43C)[C@@H]12; Y
C[C@@H]1O[C@@H](O[C@H]2[C@H](O[C@H]3CC[C@]4(C)[C@H]5CC=C6[C@@H]7C[C@](C)(CO)CC[C@]7(C(=O)O)CC[C@@]6(C)[C@@H]5CC[C@H]4C3(C)C)OC[C@H](O)[C@@H]2O)[C@H](O)[C@H](O)[C@H]1O; N
C=C1CC[C@]2(C(=O)O[C@@H]3O[C@H](CO[C@@H]4O[C@H](COC(C)=O)[C@@H](O[C@@H]5O[C@@H](C)[C@H](O)[C@@H](O)[C@H]5O)[C@H](O)[C@H]4O)[C@@H](O)[C@H](O)[C@H]3O)CC[C@]3(C)C(=CC[C@H]4[C@H]3CC[C@H]3C(C)(C)[C@@H](O[C@@H]5OC[C@H](O)[C@H](O)[C@H]5O)CC[C@]43C)[C@@H]2C1; N
C=C1CC[C@]2(C(=O)O[C@@H]3O[C@H](CO[C@@H]4O[C@H](COC(C)=O)[C@@H](O[C@@H]5O[C@@H](C)[C@H](O)[C@@H](O)[C@H]5O)[C@H](O)[C@H]4O)[C@@H](O)[C@H](O)[C@H]3O)CC[C@]3(C)C(=CC[C@H]4[C@H]3CC[C@H]3C(C)(C)[C@@H](O[C@@H]5OC[C@H](O)[C@H](O)[C@H]5O[C@@H]5O[C@@H](C)[C@H](O)[C@@H](O)[C@H]5O)CC[C@]43C)[C@@H]2C1; N

// inclusive: inhibition at least 40%? input: C=C(C)[C@@H]1CC[C@]2(C(=O)O[C@@H]3O[C@H](CO[C@@H]4O[C@H](CO)[C@@H](O[C@@H]5O[C@@H](C)[C@H](O)[C@@H](O)[C@H]5O)[C@H](O)[C@H]4O)[C@@H](O)[C@H](O)[C@H]3O)CC[C@]3(C)[C@H](C[C@H]4OC(=O)C[C@@H](O)[C@]5(C)[C@@H]4[C@@]3(C)CC[C@H]5C(=C)C)[C@@H]12
Y
